Ref: PubChem BioAssay AID1963828

Test system: 991263-137-R1-J2-PDC complex spheroid viability
Test: Anticancer human tumor 991263-137-R1-J2-PDC patient-derived colon adenocarcinoma cell line growth inhibition [POLQ]
Conditions: second compound 0.0316 µM; first compound 10 µM; stronger effect = lower value
Cut-off 50% on viability, T/C: below means T, at or above means F.

Example entries begin here.
>>> class_name("COc1ccc([C@@H](O)c2cc(-c3ncnc4cc(N5CCOCC5)ccc34)c(F)cc2Cl)nn1 + Nc1ccc(C#CCN(C(=O)Cc2ncc(C(F)(F)F)cc2C(F)(F)F)c2ccc(F)cc2)nn1")
"T"
>>> class_name("CC1COCCN1c1cc(C2(S(C)(=N)=O)CC2)nc(-c2ccnc3[nH]ccc23)n1 (stereo unspecified) + Cc1cccc(N(C)C(=O)C2C(O)CCN2c2nc(C)cc(C(F)(F)F)c2C#N)c1")
"F"
>>> class_name("Nc1ccn(C2OC(CO)C(O)C2(F)F)c(=O)n1 (stereo unspecified) + Nc1ccc(C#CCN(C(=O)Cc2ncc(C(F)(F)F)cc2C(F)(F)F)c2ccc(F)cc2)nn1")
"T"
>>> class_name("CC1COCCN1c1cc(-c2ccnn2C)c2ccnc(-c3ccn[nH]3)c2n1 (stereo unspecified) + Cc1cccc(N(C)C(=O)C2C(O)CCN2c2nc(C)cc(C(F)(F)F)c2C#N)c1")
"T"
>>> class_name("O=C(c1cc(Cc2n[nH]c(=O)c3ccccc23)ccc1F)N1CCN(C(=O)C2CC2)CC1 + COC1C(OC(N)=O)C(O)C(Oc2ccc3c(O)c(NC(=O)c4ccc(O)c(CC=C(C)C)c4)c(=O)oc3c2C)OC1(C)C")
"F"

Below: the item to evaluate.
Q. viability, T/C under 50%? Item: COc1ccc([C@@H](O)c2cc(-c3ncnc4cc(N5CCOCC5)ccc34)c(F)cc2Cl)nn1 + Cc1cccc(N(C)C(=O)C2C(O)CCN2c2nc(C)cc(C(F)(F)F)c2C#N)c1
A. T

---

System: 991263-137-R1-J2-PDC complex spheroid viability
Assay: Anticancer human tumor 991263-137-R1-J2-PDC cell line growth inhibition [POLQ];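 note: spheroids exposed to compounds for 7 days before readout; 100% = DMSO vehicle control viability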
Settings: second compound 0.0316 µM; first compound 0.0316 µM; stronger effect = lower value
Method: Multicellular complex tumor spheroid response to Polymerase (POL) inhibitors (novobiocin, ART-558, RP6685) in combination with a variety of drugs and investigational agents in selected tumor cell lines The POL inhibitors (novobiocin, ART-558, and RP6685) were evaluated both individually and in combination with standard of care and investigational anticancer small molecules within a complex spheroid model of solid tumors. . […]
Please respond with reported viability, T/C for every item in the list.
Remember to put the unit after the number in your answer.

For orientation, consider the following solved cases.
>>> experimental_value("CCc1c2c(nc3ccc(O)cc13)-c1cc3c(c(=O)n1C2)COC(=O)[C@]3(O)CC + Nc1ccc(C#CCN(C(=O)Cc2ncc(C(F)(F)F)cc2C(F)(F)F)c2ccc(F)cc2)nn1")
"51.9%"
>>> experimental_value("CC1COCCN1c1cc(C2(O)CC3CCC(C2)O3)c2cnn(-c3ccn[nH]3)c2n1 (stereo not drawn) + COC1C(OC(N)=O)C(O)C(Oc2ccc3c(O)c(NC(=O)c4ccc(O)c(CC=C(C)C)c4)c(=O)oc3c2C)OC1(C)C")
"85.5%"

Now consider the entry below.
Measured on 991263-137-R1-J2-PDC complex spheroid viability, CC[C@@]1(O)C(=O)OCc2c1cc1n(c2=O)Cc2cc3c(CN(C)C)c(O)ccc3nc2-1 + COC1C(OC(N)=O)C(O)C(Oc2ccc3c(O)c(NC(=O)c4ccc(O)c(CC=C(C)C)c4)c(=O)oc3c2C)OC1(C)C has a documented viability, T/C of 100%

---

System: 991263-137-R1-J2-PDC complex spheroid viability
Assay: Anticancer human tumor 991263-137-R1-J2-PDC cell line growth inhibition [POLQ];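 note: spheroids exposed to compounds for 7 days before readout; 100% = DMSO vehicle control viability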
Conditions: second compound 0.316 µM; first compound 10 µM; stronger effect = lower value
I'd appreciate it if you could label each record using viability, T/C and these ranges: lower = under 70%, middle = from 70% up to 90%, upper = 90% and over

Example entries begin here.
>>> class_name("COc1cc(C2c3cc4c(cc3C(OC3OC5COC(C)OC5C(O)C3O)C3COC(=O)C23)OCO4)cc(OC)c1O (stereo unspecified) + Nc1ccc(C#CCN(C(=O)Cc2ncc(C(F)(F)F)cc2C(F)(F)F)c2ccc(F)cc2)nn1")
"middle"
>>> class_name("CC(C)n1c(=O)n(C)c2cnc3cc(F)c(-c4ccc(OCCCN5CCCCC5)nc4)cc3c21 + Nc1ccc(C#CCN(C(=O)Cc2ncc(C(F)(F)F)cc2C(F)(F)F)c2ccc(F)cc2)nn1")
"upper"
>>> class_name("CC1COCCN1c1cc(-c2ccnn2C)c2ccnc(-c3ccn[nH]3)c2n1 (stereo unspecified) + Nc1ccc(C#CCN(C(=O)Cc2ncc(C(F)(F)F)cc2C(F)(F)F)c2ccc(F)cc2)nn1")
"lower"
>>> class_name("CCc1cc2c(N3CCc4c(cc(Cn5ccnc5)cc4-c4cn(C)nc4C(F)(F)F)C3=O)ccnc2c(OC)n1 + Cc1cccc(N(C)C(=O)C2C(O)CCN2c2nc(C)cc(C(F)(F)F)c2C#N)c1")
"upper"
>>> class_name("CCc1cc2c(N3CCc4c(cc(Cn5ccnc5)cc4-c4cn(C)nc4C(F)(F)F)C3=O)cc(C)nc2c(OC)n1 + Nc1ccc(C#CCN(C(=O)Cc2ncc(C(F)(F)F)cc2C(F)(F)F)c2ccc(F)cc2)nn1")
"upper"
>>> class_name("CC1COCCN1c1cc(C2(O)CC3CCC(C2)O3)c2cnn(-c3ccn[nH]3)c2n1 (stereo unspecified) + Cc1cccc(N(C)C(=O)C2C(O)CCN2c2nc(C)cc(C(F)(F)F)c2C#N)c1")
"lower"
>>> class_name("O=c1[nH]cc(F)c(=O)[nH]1 + COC1C(OC(N)=O)C(O)C(Oc2ccc3c(O)c(NC(=O)c4ccc(O)c(CC=C(C)C)c4)c(=O)oc3c2C)OC1(C)C")
"middle"
>>> class_name("O=C(Nc1ccc(O)c(NS(=O)(=O)c2ccc(F)cc2)c1)c1ccc(-c2ccccc2)cc1 + Cc1cccc(N(C)C(=O)C2C(O)CCN2c2nc(C)cc(C(F)(F)F)c2C#N)c1")
"middle"
>>> class_name("COc1ccc([C@@H](O)c2cc(-c3ncnc4cc(N5CCOCC5)ccc34)c(F)cc2Cl)nn1 + Nc1ccc(C#CCN(C(=O)Cc2ncc(C(F)(F)F)cc2C(F)(F)F)c2ccc(F)cc2)nn1")
"lower"

Below: the item to evaluate.
Q. Place this compound in its band: O=c1[nH]cc(F)c(=O)[nH]1 + Cc1cccc(N(C)C(=O)C2C(O)CCN2c2nc(C)cc(C(F)(F)F)c2C#N)c1
A. middle

---

System: 991263-137-R1-J2-PDC complex spheroid viability
Test: Anticancer human tumor 991263-137-R1-J2-PDC cell line growth inhibition [POLQ];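 note: spheroids exposed to compounds for 7 days before readout; 100% = DMSO vehicle control viability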
Conditions: second compound 0.316 µM; first compound 0.1 µM; stronger effect = lower value
Metric name: viability, T/C (%)
Numbers only, in %.

>>> experimental_value("CC(C)n1c(=O)n(C)c2cnc3cc(F)c(-c4ccc(OCCCN5CCCCC5)nc4)cc3c21 + Cc1cccc(N(C)C(=O)C2C(O)CCN2c2nc(C)cc(C(F)(F)F)c2C#N)c1")
101
>>> experimental_value("CC1COCCN1c1cc(C2(O)CC3CCC(C2)O3)c2cnn(-c3ccn[nH]3)c2n1 (stereo unspecified) + COC1C(OC(N)=O)C(O)C(Oc2ccc3c(O)c(NC(=O)c4ccc(O)c(CC=C(C)C)c4)c(=O)oc3c2C)OC1(C)C")
100
>>> experimental_value("CCCS(=O)(=O)Nc1ccc(F)c(C(=O)c2c[nH]c3ncc(-c4ccc(Cl)cc4)cc23)c1F + COC1C(OC(N)=O)C(O)C(Oc2ccc3c(O)c(NC(=O)c4ccc(O)c(CC=C(C)C)c4)c(=O)oc3c2C)OC1(C)C")
94.9
>>> experimental_value("COc1cccc(OCCCN)c1-c1cc(Nc2cnc(C#N)cn2)n[nH]1 + COC1C(OC(N)=O)C(O)C(Oc2ccc3c(O)c(NC(=O)c4ccc(O)c(CC=C(C)C)c4)c(=O)oc3c2C)OC1(C)C")
77.8
>>> experimental_value("COc1cc(C2c3cc4c(cc3C(OC3OC5COC(C)OC5C(O)C3O)C3COC(=O)C23)OCO4)cc(OC)c1O (stereo unspecified) + Cc1cccc(N(C)C(=O)C2C(O)CCN2c2nc(C)cc(C(F)(F)F)c2C#N)c1")
102

Give measured viability, T/C for every item shown.
1. O=C(c1cc(Cc2n[nH]c(=O)c3ccccc23)ccc1F)N1CCN(C(=O)C2CC2)CC1 + Cc1cccc(N(C)C(=O)C2C(O)CCN2c2nc(C)cc(C(F)(F)F)c2C#N)c1
2. COc1cccc2c1C(=O)c1c(O)c3c(c(O)c1C2=O)CC(O)(C(=O)CO)CC3OC1CC(N)C(O)C(C)O1 (stereo unspecified) + Nc1ccc(C#CCN(C(=O)Cc2ncc(C(F)(F)F)cc2C(F)(F)F)c2ccc(F)cc2)nn1
3. COc1cc2cc(C(=O)CCC(=O)O)sc2cc1OC + Nc1ccc(C#CCN(C(=O)Cc2ncc(C(F)(F)F)cc2C(F)(F)F)c2ccc(F)cc2)nn1
4. O=C(c1cc(Cc2n[nH]c(=O)c3ccccc23)ccc1F)N1CCN(C(=O)C2CC2)CC1 + Nc1ccc(C#CCN(C(=O)Cc2ncc(C(F)(F)F)cc2C(F)(F)F)c2ccc(F)cc2)nn1
5. O=c1[nH]cc(F)c(=O)[nH]1 + COC1C(OC(N)=O)C(O)C(Oc2ccc3c(O)c(NC(=O)c4ccc(O)c(CC=C(C)C)c4)c(=O)oc3c2C)OC1(C)C
6. COc1cc(C2c3cc4c(cc3C(OC3OC5COC(C)OC5C(O)C3O)C3COC(=O)C23)OCO4)cc(OC)c1O (stereo unspecified) + Nc1ccc(C#CCN(C(=O)Cc2ncc(C(F)(F)F)cc2C(F)(F)F)c2ccc(F)cc2)nn1

A.
1: 118; 2: 98; 3: 105; 4: 104; 5: 118; 6: 122
